Test system: pigweed, palmer
procedure.text: Test A preemergence
Type: in vivo, Amaranthus palmeri
condition.notes: 125 g ai/ha, 0 to 100 scale
measurement.label: Plant response rating, Pigweed, Palmer
// return a plain number; no unit text

Here are 7 compounds together with their reported answers.
compound | measurement.label | measurement
CC(C)c1ncn(-c2ccc(C#N)c(C(=O)N3C[C@H](C)Oc4c(Cl)cccc43)c2)n1 | Plant response rating, Pigweed, Palmer | 100
Cc1cccc2c1OC(C(F)(F)F)CN2C(=O)c1ccnc(-n2cncn2)c1 (centres unmarked) | Plant response rating, Pigweed, Palmer | 10
Cc1ccc(-n2cnc(CO)n2)cc1C(=O)N1C[C@H](C)Oc2c(Cl)cccc21 | Plant response rating, Pigweed, Palmer | 100
Cc1nc(C)n(-c2cccc(C(=O)N3C[C@H](C)Oc4c(Cl)cccc43)c2)n1 | Plant response rating, Pigweed, Palmer | 0
C[C@H]1CN(C(=O)c2cc(I)cc(-n3cncn3)c2)c2cccc(Cl)c2O1 | Plant response rating, Pigweed, Palmer | 10
CC(C)c1ncn(-c2ccc(OC(F)F)c(C(=O)N3C[C@H](C)Oc4c(Cl)cccc43)c2)n1 | Plant response rating, Pigweed, Palmer | 100
CC(C)c1ncn(-c2cc(C(=O)N3C[C@H](C)Oc4c(Cl)cccc43)c3ccccc3c2)n1 | Plant response rating, Pigweed, Palmer | 80

// next entry
Report measured Plant response rating, Pigweed, Palmer; entry is COc1cc(C(=O)N2C[C@H](C)Oc3c(Cl)cccc32)cc(-n2cncn2)c1
90

====

Tested on: goosegrass
procedure.text: Test A preemergence
Format: in vivo, Eleusine indica
condition.notes: 125 g ai/ha, visual injury after 10 days, 0 to 100 scale, 0 is no effect, 100 is complete control
measurement.label: Plant response rating, Goosegrass
// return a plain number; no unit text

Here are 2 molecules together with their reported answers.
query.smiles | test.target | Plant response rating, Goosegrass
Cc1ccc(-n2cnc(C(C)(C)C)n2)cc1C(=O)N1C[C@H](C)Oc2c(C)cccc21 | goosegrass | 100
CCc1ccc(-n2cncn2)cc1C(=O)N1C[C@H](C)Oc2c(Cl)cccc21 | goosegrass | 100

Report measured Plant response rating, Goosegrass; entry is CCc1ccc(-n2cnc(C3CCC3)n2)cc1C(=O)N1C[C@H](C)Oc2c(Cl)cccc21
100

====

Test system: ragweed
procedure.text: Test A preemergence
Assay type: in vivo, Ambrosia artemisiifolia
condition.notes: 1000 g ai/ha, 0 to 100 scale (0 no effect, 100 complete control), 10 days
Excerpt: […]
Quick reference: Plant response rating, Ragweed of the listed items.
// return a plain number; no unit text

compound | measurement
CC(C)C1CN(C(=O)c2ccnc(-n3cncn3)c2)c2cccc(Cl)c2O1 (centres unmarked) | 0
Cc1csc(-c2cccc(C(=O)N3C[C@H](C)Oc4c(Cl)cccc43)c2)n1 | 0
Cc1cccc2c1O[C@@H](C)CN2C(=O)c1cccc(-n2cc(C(F)(F)F)cn2)c1 | 0

Report measured Plant response rating, Ragweed; entry is Cc1cccc2c1O[C@@H](C)CN2C(=O)c1cccc(-n2cc(Cl)cn2)c1
0

Report measured Plant response rating, Ragweed; entry is Cc1cccc2c1OC(C)CN2C(=O)c1cccc(-n2cncn2)c1 (centres unmarked)
70

====

Quick reference: Barnyardgrass plant response rating of the listed items.
System: barnyardgrass
procedure.text: Test C preemergence
Format: in vivo, Echinochloa crusgalli
condition.notes: 500 g ai/ha, preemergence; 0 to 100 scale (0 no effect, 100 complete control)
// return a plain number; no unit text

Here are 5 compounds together with their reported answers.
compound | Barnyardgrass plant response rating
C[C@H]1CN(C(=O)c2cccc(-n3cnc(C4CC4)n3)c2)c2cccc(Cl)c2O1 | 100
CC(C)c1ncn(-c2ccc(OS(C)(=O)=O)c(C(=O)N3C[C@H](C)Oc4c(Cl)cccc43)c2)n1 | 100
CC(C)(C)c1ncn(-c2cccc(C(=O)N3CC(C(F)(F)F)Oc4c(Cl)cccc43)c2)n1 (stereo not drawn) | 70
Cc1cccc2c1O[C@@H](C)CN2C(=O)c1cccc(-n2cnc(N)n2)c1 | 50
Cc1cccc2c1OC(C(F)(F)F)CN2C(=O)c1ccnc(-n2cnc(C(C)(C)C)n2)c1 (stereo not drawn) | 90

// next entry
Report measured Barnyardgrass plant response rating; entry is COC(=O)c1ncn(-c2ccc(C)c(C(=O)N3C[C@H](C)Oc4c(Cl)cccc43)c2)n1
90
